Could you please report measured inhibition at 50 µM for the items listed next?
Target: viral reverse transcriptase (Wild Type) (Human immunodeficiency virus type 1 group M subtype B, UniProt P04585)
Construct: Viral reverse transcriptase (Wild Type) is found in extracts from bacterial clones; made in house; host or cells: Escherichia coli
Assay: inhibition of viral reverse transcriptase (Wild Type), cell free assay
Type: biochemical
Conditions: @ 50 μM
Counter-ions that a name gives are not always drawn.

Worked cases, answers included:
Clc1nc(SCc2ccc3ccccc3c2)nc2c1CCN2 [Example 281] = 56%
Cc1ccnc(C(Sc2nc(N)cc(Cl)n2)C2CC2)c1 (stereo not drawn) [Example 226, mesylate] = 79%

Now for a further molecule.
Form field: reported inhibition at 50 µM of Nc1cc(Cl)nc(SC/C=C/C(=O)N2CCOCC2)n1 [Example 198] 69%

----------
Biological target: viral reverse transcriptase (Wild Type) (Human immunodeficiency virus type 1 group M subtype B, UniProt P04585)
Construct: Viral reverse transcriptase (Wild Type) is found in extracts from bacterial clones; made in house; host or cells: Escherichia coli
Assay: inhibition of viral reverse transcriptase (Wild Type), cell free assay
Assay type: biochemical
Conditions: @ 10 μM
Method: The utility of the pyrimidine-thioalkyl and alkylether anti-AIDS compounds of Formula IA of this invention can be determined by their ability to inhibit viral reverse transcriptase, an enzyme essential for human immunodeficiency virus replication. […] Inhibition of this enzyme is determined in a cell free assay which measures the level of radioactive precursors incorporated into DNA. […]
Could you please report measured inhibition at 10 µM for the items listed next?
Answers are plain numbers, in %.

Worked cases, answers included:
COC(=O)/C=C(\C)C(C)Sc1nc(N)cc(Cl)n1 (stereo not shown) = 67
CC(Sc1nc(N)cc(Cl)n1)c1cc(C2CCCCC2)ccn1 (stereo not shown) = 78
COC(=O)/C=C(\C)CSc1nc(N)cc(Cl)n1 = 79

Form field: reported inhibition at 10 µM of CC(Sc1nc(N)cc(Cl)n1)c1ccc2ccccc2c1 (stereo not shown) 90

----------
Biological target: viral reverse transcriptase (Wild Type) (Human immunodeficiency virus type 1 group M subtype B, UniProt P04585)
Construct: Viral reverse transcriptase (Wild Type) is found in extracts from bacterial clones; made in house; host or cells: Escherichia coli
Assay: inhibition of viral reverse transcriptase (Wild Type), cell free assay
Assay type: biochemical
Details: @ 1 μM
Could you please report measured inhibition at 1 µM for the items listed next?
Give bare numbers, in %.

Worked cases, answers included:
CC(Sc1nc(N)c(Br)c(Cl)n1)c1nccc2c1CCCC2 (centres unmarked) [Example 236] = 58
Nc1cc(Cl)nc(SCc2cnc3occc3c2)n1 [Example 304] = 94
CN(C)C(=O)/C=C/CSc1nc(N)cc(Cl)n1 [Example 204] = 78
CC(Sc1nc(N)cc(Cl)n1)c1nccc2ccccc12 (centres unmarked) [Example 232] = 90
CCC(Sc1nc(N)cc(Cl)n1)c1cc(C)ccn1 (centres unmarked) [Example 218] = 84

Dear colleague, could you please provide inhibition at 1 µM for the compounds listed below?
1. Cc1ccnc(C(C)(C)Sc2nc(N)cc(Cl)n2)c1 [Example 213]
2. CC(Sc1nc(N)cc(Cl)n1)c1nccc2c1CCCC2 (centres unmarked) [Example 235]
3. CC(Sc1nc(N)c(Br)c(Cl)n1)c1cc2ccccc2cn1 (centres unmarked) [Example 231]

1: 72; 2: 90; 3: 78

----------
Molecular target: P236L viral reverse transcriptase (Human immunodeficiency virus type 1 group M subtype B, UniProt P04585, P823L)
Construct: P236L viral reverse transcriptase is obtained by PNAS 90: 4713-4717 (1993); made in house
Test: inhibition of viral reverse transcriptase (P236L), cell free assay
Type: biochemical
Details: 30 minutes at 37° C., read-out: IC50 (Table I, P236L)
pIC50: −log10 of the molar value.
Decide by pIC50: equal to or exceeding 5 means Met, less means Not met.

Would you please look over these solved cases?
Nc1ccnc(SCc2ccc3ccccc3c2)n1 [Example 98] = Met
NNc1cc(Cl)nc(SCc2ccccc2)n1 [Example 88] = Met
Cc1ccccc1CSc1nc(N)cc(Cl)n1 [Example 35] = Met
Nc1cc(Cl)nc(S(=O)(=O)Cc2cccc(Br)c2)n1 [Example 69] = Not met
CCC(C)c1ccnc(CSc2nc(N)cc(Cl)n2)c1 (stereo not shown) [Example 145] = Met

Please tell me: is the compound CC(C)Oc1ccnc(CSc2nc(N)cc(Cl)n2)c1 [Example 126] at or over 5 in terms of pIC50? Met

Reference for the values: patent US6043248A
